target: Glutamyl aminopeptidase (Oryctolagus cuniculus); test: Inhibition of aminopeptidase A (APA)
Readout type: Ki (nM)
Only the number, expressed in nM, is required.

## Input Answer with the recorded Ki for the compound listed here: `N[C@H](CS)CCC(=O)O`
## Output 140
